- assayedSystem: Human neutrophil elastase (Homo sapiens)
- Construct: purchased Elastin Products Company, Inc. (EPC, Owensville, USA) SE563
- Sequence (P08246 30-267): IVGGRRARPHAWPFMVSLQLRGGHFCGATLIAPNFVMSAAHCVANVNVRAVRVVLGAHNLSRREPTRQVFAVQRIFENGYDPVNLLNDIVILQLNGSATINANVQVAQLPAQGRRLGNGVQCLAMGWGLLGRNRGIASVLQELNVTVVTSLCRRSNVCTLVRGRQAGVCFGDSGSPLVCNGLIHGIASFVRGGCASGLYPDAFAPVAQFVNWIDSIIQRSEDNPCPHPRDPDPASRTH
- measurementProtocol: HNE inhibitory activity in vitro (fluorescence-quenched substrate)
- Type: biochemical
measureName: pIC50
Please note pIC50 is a logarithmic value: minus log10 of concentration in mol/L. Answer with that number alone.

Request: Field: pIC50 (Human neutrophil elastase (Homo sapiens)). Entry: CCC(C)C1NC(=O)C(Cc2ccc(O)cc2)N(C)C(=O)C(C(C)CC)N2C(=O)C(CCC2OCCOCCOC)NC(=O)C(CC(C)C)NC(=O)C(NC(=O)C(CCC(N)=O)NC(=O)C(C)C)C(C)OC1=O (stereo not drawn)
Result: 8.30

Request: Test system Human neutrophil elastase (Homo sapiens); read-out pIC50; what value for CCC(C)C1NC(=O)C(Cc2ccc(O)cc2)N(C)C(=O)C(C(C)CC)N2C(=O)C(CCC2OC)NC(=O)C(CC(C)C)NC(=O)C(NC(=O)C(CCC(=O)OC)NC(=O)C(C)C)C(C)OC1=O (stereo not drawn) ?
Result: 8.10

Request: What is its pIC50 for Human neutrophil elastase (Homo sapiens)? Entry: CCCOC1CCC2NC(=O)C(CC(C)C)NC(=O)C(NC(=O)C(CCC(N)=O)NC(=O)C(C)C)C(C)OC(=O)C(C(C)CC)NC(=O)C(Cc3ccc(O)cc3)N(C)C(=O)C(C(C)CC)N1C2=O (stereo not drawn)
Result: 8.30
